# credit: paper PMC6792352

# Test system: GH3-TRE-Luc cell line
# assay.conditions: read-out: AC50 (uM) modified / 1000; Tox21_110001=Tox21_300650; viability, 1 nM T3 present, 24 h
property.measured: CC50 (µM)
# number only, unit µM dropped from output

# input Identify the measured CC50 of OC(c1ccc(Cl)cc1)(c1cncnc1)c1ccccc1Cl (stereo not shown) for GH3-TRE-Luc cell line.
# output 82.8

====

# test.details: in vitro
# assay.conditions: rat, gh3-tre-luc cells, AC50 (uM) modified / 1000, Tox21_110001=Tox21_111607; viability, 1 nM T3 present, 24 h
property.measured: CC50 at 24 h

# input # lookup: CC50 at 24 h of CC1OC(C)OC(C)O1 (stereo not shown)
# output > 50 µM

====

# test.details: in vitro
# assay.conditions: rat, gh3-tre-luc cells, AC50 (uM) modified / 1000
Assignment: determine reported CC50 at 24 h for the given molecules.

# input # get_value(readout='CC50 at 24 h', item= `Oc1cccc(Cl)c1` )
# output > 90 µM

# input Requested read-out: CC50 at 24 h. Entry: CC(C(=O)O)c1ccc(/C=C2\CCCCC2=O)cc1 (centres unmarked)
# output > 50 µM

# input So what's the measured CC50 at 24 h for this one? O=C(OCCOCCOCCOC(=O)c1ccccc1)c1ccccc1 [Triethylene glycol dibenzoate]
# output > 90 µM

# input Fill blank: measured CC50 at 24 h of the molecule `CN1CC(=O)N=C1NC(=O)Nc1cccc(Cl)c1` is ____.
# output > 50 µM

# input Reported CC50 at 24 h, molecule NC(=O)N1c2ccccc2C=Cc2ccccc21 [Carbamazepine] : ____
# output > 90 µM

====

# test.details: in vitro
# assay.conditions: rat, gh3-tre-luc cells, AC50 (uM) modified / 1000, Tox21_110001=Tox21_112618; viability, 1 nM T3 present, 24 h
property.measured: CC50 at 24 h

# input Consider the compound CCC(N)Cc1c[nH]c2ccccc12 (stereo not shown) and give its measured CC50 at 24 h.
# output > 50 µM

====

# System: GH3-TRE-Luc cell line
# assay.conditions: read-out: AC50 (uM) modified / 1000; Tox21_110001=Tox21_202695; viability, 1 nM T3 present, 24 h
property.measured: CC50 (µM)
Provide only the numeric value, understood in µM.

# input # get_value(readout= CC50, system= GH3-TRE-Luc cell line) for CC[n+]1ccccc1 [1-Ethylpyridinium bromide]
# output 32.7

====

# test.details: in vitro
# assay.conditions: rat, gh3-tre-luc cells, AC50 (uM) modified / 1000, Tox21_110001=Tox21_110628; viability, 1 nM T3 present, 24 h
property.measured: CC50 at 24 h

# input Find the recorded CC50 at 24 h belonging to CCOC(=O)c1cncn1[C@H](C)c1ccccc1 [Etomidate] and report it.
# output > 20 µM

====

# test.details: in vitro
# assay.conditions: rat, gh3-tre-luc cells, AC50 (uM) modified / 1000
property.measured: CC50 at 24 h

# input Given the compound CC1=CC(C)C(C=O)CC1 (stereo not drawn) , what is its reported CC50 at 24 h?
# output > 90 µM

# input // query CC50 at 24 h value for entry `CC1(C)Oc2ccc(C#N)cc2[C@@H](N2CCCC2=O)[C@@H]1O`
# output > 50 µM

# input Recorded CC50 at 24 h for `Cc1ccc(CO)cc1` , please?
# output > 90 µM

# input Need CC50 at 24 h, item `OCc1cccnc1`
# output > 50 µM

# input // query CC50 at 24 h value for entry CC1CN(c2ccccc2)NC1=O (stereo not drawn)
# output > 90 µM

# input So what's the measured CC50 at 24 h for this one? COc1cc2c(cc1OC)-c1cc3ccc(OC)c(OC)c3c[n+]1CC2 [Palmatine chloride hydrate]
# output > 90 µM
